assay: chemical genetic growth profiling, strain panel (AID 1159580);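 also: tested at 20 µM; growth read once vehicle control cultures reached saturation at 30 °C; 1 = growth at the plate median or of vehicle wells; lower values mean less growth of the strain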; conditions: S. cerevisiae deletion strains, growth OD, locus YLR371W, strain rom2, hits give low values
Among all 5,500 compounds or so, about 2,000 (36%) were called active. Not shown: some 18% with an inconclusive outcome. Some of the results follow.
Measured normalized growth, listed per entry.
quantityMeasured: normalized growth

[
  {
    "molecule": "CCOC(=O)CCC(=O)O[C@H]1[C@H](O[C@@H]2[C@@H](C)[C@H](O[C@H]3C[C@@](C)(OC)[C@@H](O)[C@H](C)O3)[C@@H](C)C(=O)O[C@H](CC)[C@@](C)(O)[C@H](O)[C@@H](C)C(=O)[C@H](C)C[C@@]2(C)O)O[C@H](C)C[C@@H]1N(C)C",
    "resultValue": 0.992
  },
  {
    "molecule": "CCC(=O)O[C@H]1[C@H](O[C@@H]2[C@@H](C)[C@H](O[C@H]3C[C@@](C)(OC)[C@@H](O)[C@H](C)O3)[C@@H](C)C(=O)O[C@H](CC)[C@@](C)(O)[C@H](O)[C@@H](C)C(=O)[C@H](C)C[C@@]2(C)O)O[C@H](C)C[C@@H]1N(C)C",
    "resultValue": 0.935
  },
  {
    "molecule": "COc1cc2c(cc1OC)C1C(=O)c3c(O)cc4c(c3OC1CO2)C=CC(C)(C)O4 (stereo not drawn)",
    "resultValue": 1.02
  }
]

Reference source for all entries: PubChem BioAssay AID1159580
